Test system: CAKI-1 renal
Assay: NCI tumour cell line growth inhibition, 48 h
Below, each entry is listed with its recorded TGI.

Quick check: TGI of "O[N+]1=CC=CCC1=S.On1ccccc1=S.[Zn]" ?
3.13 µM

Quick check: TGI of "CNc1nc(SC)nc2c1c(N)nn2C" ?
> 100 µM

Quick check: TGI of "COc1cccc([C@@]2(O)c3c(ccc(O)c3OC)[C@H]2OC)c1OC" ?
78.4 µM

Quick check: TGI of "COc1c2c(cc3nc4ccccc4nc13)CC[C@H](NC(C)=O)c1cc(=O)c(SC)ccc1-2" ?
> 42.6 µM

Quick check: TGI of "COc1ccc(C(=O)/C=C2\C(=O)Nc3ccc(Br)cc32)cc1" ?
21.4 µM

* * *

Tested on: K-562 leukemia
Test: NCI tumour cell line growth inhibition, 48 h
Below, each entry is listed with its recorded GI50.

// known answers, use as guide
| MOLECULE | GI50 |
| --- | --- |
| Cc1c(C(N)=O)sc2c1c(=O)n(Cc1ccccc1)c1nnc(SCC(=O)Nc3ccc(Cl)cc3)n21 | 12600 nM |
| Clc1ccc(C2c3ccccc3-c3nccn32)c(Cl)c1 (configuration not stated) | 1370 nM |
| O[N+]1=CC=CCC1=S.On1ccccc1=S.[Zn] | 661 nM |
| COc1ccc(/C=C/C(=O)c2cccc(B(O)O)c2)cc1O | 1330 nM |

Quick check: GI50 of CCOC(=O)c1cc2c(c3ccsc13)C1(C)CCC3c4ccc(OC)cc4CCC3C1C2 (configuration not stated) ?
> 100000 nM

Quick check: GI50 of O=C1OCC2=C1C(c1cccc(Cl)c1)c1cc3c(cc1N2CCO)OCO3 (configuration not stated) ?
354 nM

Quick check: GI50 of "CN([O-])c1nc(N(C)[O-])nc(N2CCOCC2)n1.CN([O-])c1nc(N(C)[OH2+])nc(N2CCOCC2)n1.[Fe+3]" ?
48600 nM

* * *

Below, each entry is listed with its recorded TGI.
Tested on: M14 melanoma
Assay: NCI tumour cell line growth inhibition, 48 h

| COMPOUND | TGI |
| --- | --- |
| CC(C)(C)OC(=O)N1CCCC1=O | > 10 µM |
| COC(=O)[C@]12CSCN1C(=O)C(C(C)=O)=NN2C(=O)[C@](OC)(c1ccccc1)C(F)(F)F | > 100 µM |
| COc1cc(-c2cc(=O)c3c(OC)c(OC)c(OC)c(OC)c3o2)cc(OC)c1OC | > 100 µM |

Please tell me: TGI of "Cn1cc(C2=C(c3cn(CCCO)c4ccccc34)C(=O)NC2=O)c2ccccc21" , system M14 melanoma?
> 25 µM

Please tell me: TGI of "O=C(O)CCCn1c(SCc2c(Cl)cccc2Cl)nc2ccsc2c1=O" , system M14 melanoma?
> 100 µM

* * *

Below, each entry is listed with its recorded TGI.
System: UACC-257 melanoma
Assay: NCI tumour cell line growth inhibition, 48 h

// known answers, use as guide
| MOLECULE | TGI |
| --- | --- |
| COc1cccc(/C=N/Nc2ncnc3c2cnn3-c2cccc(OC)c2)c1 | > 25 µM |
| Cc1cc(C)c2c(=O)n(CN3CCC(C#N)(c4ccccc4)CC3)sc2n1 | 44.6 µM |
| O=C(O)c1ccccc1CC1Cc2ccccc2C1 | > 100 µM |
| Cc1ccc2c(c1)C(=O)c1[nH]c3ccc(F)cc3c1CO2 | > 100 µM |
| Cc1ccc(/C=C2\N=C(N3CCOCC3)NC2=O)cc1 | > 100 µM |
| CCCNC(=O)C(C)(Cl)C(=O)c1ccccc1O (stereo unspecified) | > 100 µM |
| COc1ccc(S(=O)(=O)Nc2cc(/C=C\c3cc(OC)c(OC)c(OC)c3)cc(OC)c2OC)cc1 | 98.9 µM |
| Cn1cc(C2=C(c3cn(CCSC(=N)N)c4ccccc34)C(=O)NC2=O)c2ccccc21 | 7.79 µM |

Quick check: TGI of CC1CN1C1=CC(=O)c2c(c(CO)cn2C)C1=O (stereo unspecified) ?
3.65 µM

Quick check: TGI of "CC(=O)c1c(P(=O)(OC(C)C)OC(C)C)nn(-c2ccc([N+](=O)[O-])cc2)c1C" ?
> 100 µM

Quick check: TGI of O=C1OCC2=C1C(c1cccc(Cl)c1)c1cc3c(cc1N2CCO)OCO3 (stereo unspecified) ?
> 44.5 µM
